Where these numbers come from: patent US20250011410A1

Listed below: Ratio WT-kd/clone-kd values for each entry.
- measurementTarget: T1, canine NGF tagged at the C-terminus with the Flag tag (canine, UniProt A0A8I3PYI3 122-241)
- T1 construct: mature; Expressed with baculovirus technology; also called feline NGF (processed form identical)
- T1 sequence (A0A8I3PYI3 entry or part of it): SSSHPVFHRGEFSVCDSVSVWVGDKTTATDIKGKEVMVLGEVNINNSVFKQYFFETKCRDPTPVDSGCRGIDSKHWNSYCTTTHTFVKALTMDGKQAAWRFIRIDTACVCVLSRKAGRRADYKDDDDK
- test: SPR off-rate screen, Fab-SASA on BSA chip
API doc: respond with a numeric literal and nothing else, no unit.

# example entries with known answers
- binder: "felinized clone 101 Fab-SASA variant F112P (VH) (Fab, V domains shown, not shown: small tags and cut ends) VH: DVQLVESGGDLVKPGGSLRLTCVASGLSLTSSSMSWVRQAPGKGLQWVSTIYSNGGTYYTDSVKGRFTISKDNAENTLYLQMNNLKTEDTATYYCASIYYYDADYLHWYFDPWGQGALVTVSS VL: EIQMTQSPTSLSASVGDRVTITCRASEGISNNLSWYQQTPGKAPKLLIYATSNLHSGVPSRFSGSGSGTDFTLTISSLQPEDFATYYCQQGYKWPLTFGGGTKLEITR"
  endpointLabel: "Ratio WT-kd/clone-kd"
  recordedMeasurement: 1.71
- binder: "felinized clone 101 Fab-SASA variant S31H (VH) (Fab, V domains shown, not shown: small tags and cut ends) VH: DVQLVESGGDLVKPGGSLRLTCVASGLSLTHSSMSWVRQAPGKGLQWVSTIYSNGGTYYTDSVKGRFTISKDNAENTLYLQMNNLKTEDTATYYCASIYYYDADYLHWYFDFWGQGALVTVSS VL: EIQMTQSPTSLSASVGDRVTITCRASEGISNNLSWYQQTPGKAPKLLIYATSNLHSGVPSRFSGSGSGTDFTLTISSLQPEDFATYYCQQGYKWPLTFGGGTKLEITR"
  endpointLabel: "Ratio WT-kd/clone-kd"
  recordedMeasurement: 1.54

Let's switch to this binder now.
Assign Ratio WT-kd/clone-kd to the following record: felinized clone 101 Fab-SASA variant Y58D (VH) (Fab, V domains shown, not shown: small tags and cut ends) VH: DVQLVESGGDLVKPGGSLRLTCVASGLSLTSSSMSWVRQAPGKGLQWVSTIYSNGGTDYTDSVKGRFTISKDNAENTLYLQMNNLKTEDTATYYCASIYYYDADYLHWYFDFWGQGALVTVSS VL: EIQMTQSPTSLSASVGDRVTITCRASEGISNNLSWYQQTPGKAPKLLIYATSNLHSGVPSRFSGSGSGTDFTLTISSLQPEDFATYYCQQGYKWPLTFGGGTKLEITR 1.68
